Experiment: qHTS assay to test for compound auto fluorescence at 535 nm (green) in HepG2 cell free culture (AID 720686); further: on the % scale 0 is the no-effect control and ±100 the full control effect
Conditions: Cell-free medium, green autofluorescence 485/535 nm; series mostly up to 91.3 µM
Active and inactive are the calls of the source. The call rests on the fitted dose curve; in most records, active means well fitted curve in the direction sought with a large enough effect in the repeat runs; inconclusive means weak or mixed curves; inactive means flat fitted curve, though single readings scatter.
MEASUREMENT TYPE: fluorescence, % of fluorescein control

>>> result_value("CCN(CC)CCOC(=O)C1(C2CCCCC2)CCCCC1")
"inactive"
>>> result_value("C=CC(C)(CCC=C(C)C)OC(=O)/C=C/c1ccccc1 (stereo unspecified)")
"inactive"
>>> result_value("C[C@H]1O[C@@H](O[C@H]2[C@@H](O)C[C@H](O[C@H]3[C@@H](O)C[C@H](O[C@H]4CC[C@@]5(C)[C@H](CC[C@@H]6[C@@H]5C[C@@H](O)[C@]5(C)[C@@H](C7=CC(=O)OC7)CC[C@]65O)C4)O[C@@H]3C)O[C@@H]2C)C[C@H](O)[C@@H]1O")
"inactive"
>>> result_value("C[C@@]12C(=O)OC(=O)[C@]1(C)C1CCC2O1")
"-0.0053% [at 18.6 µM] (inactive)"
>>> result_value("CC(C)(c1cc(Br)c(OCCO)c(Br)c1)c1cc(Br)c(OCCO)c(Br)c1")
"inactive"
>>> result_value("CN(C)CCCN1c2ccccc2CCc2ccccc21")
"inactive"
>>> result_value("CN(C)c1ccc(N=Nc2ccccc2C(=O)O)cc1")
"inactive"
>>> result_value("CCC(C)c1cc([N+](=O)[O-])cc([N+](=O)[O-])c1OC(=O)OC(C)C (stereo unspecified)")
"inactive"
>>> result_value("CCN1CCN(c2cc(-c3ccc(F)cc3)c3c(n2)CCCCCC3)CC1")
"inactive"
>>> result_value("CCCCCCCC/C=C\\CCCCCCCC(=O)N(C)CC(=O)O")
"inactive"
>>> result_value("CCO[Si](CCCSSSSCCC[Si](OCC)(OCC)OCC)(OCC)OCC")
"inactive"
>>> result_value("Cc1nc(Nc2ncc(C(=O)Nc3c(C)cccc3Cl)s2)cc(N2CCN(CCO)CC2)n1")
"inactive"
>>> result_value("CC(C(O)c1ccccc1)N(C)CCOC(c1ccccc1)c1ccccc1 (stereo unspecified)")
"inactive"
>>> result_value("CCOC(=O)[C@@](C)(N)Cc1ccc(O)c(O)c1")
"-0.0478% [at 18.6 µM] (inactive)"
>>> result_value("CN(C)c1ccc(N=NS(=O)(=O)O)cc1")
"inactive"
>>> result_value("CC(C)N=C(N)/N=C(\\N)Nc1ccc(Cl)cc1")
"0.0037% [at 18.6 µM] (inactive)"
>>> result_value("C1CC(COCC2CO2)CCC1COCC1CO1 (stereo unspecified)")
"inactive"
>>> result_value("CCCCOc1ccc(C(=O)CCN2CCCCC2)cc1")
"0.0663% [at 18.6 µM] (inactive)"
>>> result_value("c1ccc(Sc2ccccc2)cc1")
"inactive"
>>> result_value("Clc1ccc(C(c2ccccc2Cl)C(Cl)Cl)cc1 (stereo unspecified)")
"inactive"
>>> result_value("CCc1cccc(C)c1")
"inactive"
>>> result_value("NC(=O)c1ccccc1N")
"inactive"
>>> result_value("CC(=O)Oc1ccc(C2(c3ccc(OC(C)=O)cc3)Oc3ccccc3NC2=O)cc1")
"inactive"
>>> result_value("CC(C)=C1CC[C@@H](C)CC1=O")
"inactive"
>>> result_value("CC(C)c1cccc(C(C)C)c1N1C(=O)c2ccc(O)cc2C1=O")
"inactive"
>>> result_value("CCCCOC(=O)C(C)CC (stereo unspecified)")
"inactive"

// provenance: PubChem BioAssay (Tox21)
